The following compounds are shown together with reported Stability RE, processed samples' stability values.
- Assay details: Stability of analytes in rat plasma under storage conditions
- Format: physicochemical
- Setup conditions: room temperature 24 h, high QC concentration, n = 6
Form entry: value (%) — number only.

Below are worked cases with known answers.
Compound	Unit text	Reported result
COc1cc2c(cc1OC)-c1cc3ccc(OC)c(OC)c3c[n+]1CC2	%	−12.47
O=C1NCCc2cc3c(cc21)OCO3 [noroxyhydrastinine]	%	−12.23

Input: For COc1cc2c(cc1OC)-c1cc3ccc4c(c3c[n+]1CC2)OCO4 [epiberberine] , what is its reported Stability RE, processed samples' stability?
Output: −10.77

Input: Also O=c1c2c3c(ccc2cc2n1CCc1cc4c(cc1-2)OCO4)OCO3 ?
Output: 10.05

Input: Also C[n+]1c2n(c(=O)c3ccccc31)CCc1c-2[nH]c2ccccc12 [dehydroevodiamine] ?
Output: −1.09

Input: Also Cn1c(=O)n(CCC2(O)C(=O)Nc3ccccc32)c(=O)c2ccccc21 (stereo not shown) [wuchuyuamide-I] ?
Output: −10.58

Input: Also CCCCC=CCCCCCCCc1cc(=O)c2ccccc2n1C ?
Output: 3.83
